Substrate: BHET
Details: 120 h
assay metric: plate clearing

protein	result
unnamed (protein) MLRFRVAASLPAEYLAVDNVVLEGTAQPPAPGGSGYQKGPEPTAALLEAGTGPFATASVTLSRSAASGFGGGTIHYPQGVAGPFAAVAVVPGYLAAESTIAWWGPRLASHGFVVITMATNNTLDLPASRSAQLTAALNQLKTLSATPGHAVFGLVDPNRLGVVGWSYGGGGTLLNAQANPQLKAAMALAPKTLLQGDFTGTTVPTLVVGCQADTTAAPAFWAIPFYNKVSASTGKAYLEVRGGSHFCVTSSTSDADKKALGKYGVAWLKRFMDEDTRYAPFLCGAPRQADVAGNAAISDYRDNCPY	not clears the plate
unnamed (protein) MNSNRTVPLRRAAIAVVLALTLVACDWKGPAPTDASLTAASGPFAVSTLAVPSSAGFGGGTIYYPSNVDGPFAAISVSPGFFSTQSAIAAWGPRLASHGFVVITINTTSLLADPTQRSTEQRQALAHVVNQGNTASSPIFGLVDGNRTGVAGHSMGGGASLISAQADPSIDAAMPFAPWNLGTNFAGITSPTLVLACQADGVAAPNSMASPMYNSIPATTKKMYLSVTNGDHSCANAPTGGNNDVGRYGVAFFKRWLDSDTRYDPWMCGASAPTAGGALNEVRSTCPF	not clears the plate
